Where do these numbers come from? They come from patent US20120316071A1.

- target_or_system: T1, Recombinant Human DLL4 (delta-like protein 4) (human, UniProt Q9NR61 27-524)
- T1 construct: Bought recombinant human DLL4 coated on the ELISA plate; also called rHuman DLL4
- test_name: ELISA, DLL4 coated on plate, Fab at 25 nM (2-fold dilution series), absorbance at 450 nm
value_type: ELISA signal
Number only, no unit.

Please review the entries below; each comes with its answer.
>  <binder>
Fab VH5-51_IGHD5-18*01>3_IGHJ4*01 G100K/G104T G24A/S28R/G35V (KT ARV) & V3-4_IGLJ1*01 V91L/S96P S52V (Fab, V domains shown, Fab; Expressed in E. coli with CH1 (plasmid A, His6 and Flag tags) and lambda CL (plasmid E); The light-chain S52 variants were made on the KT TRV heavy chain (T0104); also called G100K/G104T G24A/S28R/G35V & V91L/S96P S52V) VH: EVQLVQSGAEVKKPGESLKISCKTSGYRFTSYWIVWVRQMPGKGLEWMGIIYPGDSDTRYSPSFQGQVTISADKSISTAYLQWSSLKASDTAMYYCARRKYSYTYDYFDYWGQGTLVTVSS VL: QTVVTQEPSFSVSPGGTVTLTCGLSSGSVSTSYYPSWYQQTPGQAPRTLIYVTNTRSSGVPDRFSGSILGNKAALTITGAQADDESDYYCLLYMGPGISYVFGTGTKVTVL

>  <value_type>
ELISA signal

>  <numeric_result>
0.6

$$$$
>  <binder>
Fab VH5-51_IGHD5-18*01>3_IGHJ4*01 G100K/G104T G24T/S28R/G35V (KT TRV) & V3-4_IGLJ1*01 V91L/S96P (LP) (Fab, V domains shown, Fab; Expressed in E. coli with CH1 (plasmid A, His6 and Flag tags) and lambda CL (plasmid E); also called H:KT TRV & L:LP) VH: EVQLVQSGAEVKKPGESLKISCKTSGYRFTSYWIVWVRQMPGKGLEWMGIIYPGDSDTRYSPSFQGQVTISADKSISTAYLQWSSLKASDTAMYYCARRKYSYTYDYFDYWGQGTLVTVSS VL: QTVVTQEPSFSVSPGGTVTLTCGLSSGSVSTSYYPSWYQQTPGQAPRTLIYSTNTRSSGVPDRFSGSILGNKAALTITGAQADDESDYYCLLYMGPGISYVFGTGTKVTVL

>  <value_type>
ELISA signal

>  <numeric_result>
0.58

$$$$
>  <binder>
Fab VH5-51_IGHD5-18*01>3_IGHJ4*01 G104T & V3-4_IGLJ1*01 (wildtype) (Fab, V domains shown, Fab; Expressed in E. coli with CH1 (plasmid A, His6 and Flag tags) and lambda CL (plasmid E); also called G104T & Wildtype) VH: EVQLVQSGAEVKKPGESLKISCKGSGYSFTSYWIGWVRQMPGKGLEWMGIIYPGDSDTRYSPSFQGQVTISADKSISTAYLQWSSLKASDTAMYYCARRGYSYTYDYFDYWGQGTLVTVSS VL: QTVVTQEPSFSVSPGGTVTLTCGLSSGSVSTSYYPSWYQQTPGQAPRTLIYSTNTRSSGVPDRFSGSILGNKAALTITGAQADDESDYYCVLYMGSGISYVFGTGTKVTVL

>  <value_type>
ELISA signal

>  <numeric_result>
0.18

$$$$
>  <binder>
Fab VH5-51_IGHD5-18*01>3_IGHJ4*01 G100K/G104T G24T/S28R/G35V (KT TRV) & V3-4_IGLJ1*01 (wildtype) (Fab, V domains shown, Fab; Expressed in E. coli with CH1 (plasmid A, His6 and Flag tags) and lambda CL (plasmid E); also called H:KT TRV & L:wt) VH: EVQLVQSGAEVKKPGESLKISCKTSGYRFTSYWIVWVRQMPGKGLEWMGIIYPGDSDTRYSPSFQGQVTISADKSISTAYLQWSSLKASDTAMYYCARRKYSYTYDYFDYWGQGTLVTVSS VL: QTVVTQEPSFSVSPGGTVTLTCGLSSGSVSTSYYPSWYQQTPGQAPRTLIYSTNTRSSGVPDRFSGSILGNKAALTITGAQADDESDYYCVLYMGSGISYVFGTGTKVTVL

>  <value_type>
ELISA signal

>  <numeric_result>
0.26

$$$$

Query: What does the data say about its ELISA signal? Entry: Fab VH5-51_IGHD5-18*01>3_IGHJ4*01 G100K/G104T (KT) & V3-4_IGLJ1*01 (wildtype) (Fab, V domains shown, Fab; Expressed in E. coli with CH1 (plasmid A, His6 and Flag tags) and lambda CL (plasmid E); also called H:KT & L:wt; KT double mutant) VH: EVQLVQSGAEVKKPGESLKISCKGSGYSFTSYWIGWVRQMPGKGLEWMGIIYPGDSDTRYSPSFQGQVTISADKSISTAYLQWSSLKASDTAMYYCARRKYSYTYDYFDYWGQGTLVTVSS VL: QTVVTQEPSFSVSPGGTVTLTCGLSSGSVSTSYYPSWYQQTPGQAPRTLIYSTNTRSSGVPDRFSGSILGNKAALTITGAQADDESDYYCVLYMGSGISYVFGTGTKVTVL
Response: 0.16
